All figures here come from the supplement of paper PMC10567573.

I'd appreciate it if you could supply protein stability index values for the items below.
B1: FBXO3 (parent)
chain: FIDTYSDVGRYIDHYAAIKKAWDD

Variants of: B1
method: protein stability index of a GFP-peptide fusion (GPS, HEK-293T) (PSI 1-6); higher = more stable;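 further: lentivirally expressed fusions sorted by FACS into six bins by GFP to DsRed ratio, PSI derived from sequencing read proportions per bin multiplied by bin number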
cond: c terminus: a fixed tail appended
# output: bare number, no unit

For the variant "G9R" , give its measured protein stability index value.
1.7

Please report the measured protein stability index for "D13L"
2.24

Answer with the recorded protein stability index for the variant listed here: "Y5P"
3.12

Answer with the recorded protein stability index for the variant listed here: "F1S"
3.64

State its protein stability index for this variant: "Y5A"
2.25

Find the measured protein stability index of "H14G" and report it.
2.11

Item "Y15F" : provide protein stability index
2.14

Check the records and state protein stability index for "S6R"
3.1
